target: SARS-CoV-2 3CL protease (Severe acute respiratory syndrome coronavirus 2); type: biochemical; conditions: 100 µM compound
Here the recorded Inhibition at 100 µM is given for each entry.
Measurement name: Inhibition at 100 µM (%)

INSERT INTO results (compound, target_entity, measurement_name, measured_number) VALUES
  ('O=C(CCl)NC(=O)OCc1ccccc1 [Z108566700]', 'SARS-CoV-2 3CL protease (Severe acute respiratory syndrome coronavirus 2)', 'Inhibition at 100 µM', 100),
  ('CN(c1ccc(C(=O)CCl)cc1)S(C)(=O)=O [Z57982062]', 'SARS-CoV-2 3CL protease (Severe acute respiratory syndrome coronavirus 2)', 'Inhibition at 100 µM', 94),
  ('O=C(CCl)N1CCN(Cc2cccs2)CC1 [Z166605372]', 'SARS-CoV-2 3CL protease (Severe acute respiratory syndrome coronavirus 2)', 'Inhibition at 100 µM', 70),
  ('CC(C)Cc1ncc(CNC(=O)c2cccnc2S)s1 [Z1494348106]', 'SARS-CoV-2 3CL protease (Severe acute respiratory syndrome coronavirus 2)', 'Inhibition at 100 µM', 100),
  ('C=CS(=O)(=O)c1nc2ccccc2s1 [Z3228044564]', 'SARS-CoV-2 3CL protease (Severe acute respiratory syndrome coronavirus 2)', 'Inhibition at 100 µM', 100),
  ('OCCc1cnc(S)nc1 [Z2064274637]', 'SARS-CoV-2 3CL protease (Severe acute respiratory syndrome coronavirus 2)', 'Inhibition at 100 µM', 100),
  ('O=C(CCl)N1CCc2[nH]c3ccccc3c2C1 [Z398556976]', 'SARS-CoV-2 3CL protease (Severe acute respiratory syndrome coronavirus 2)', 'Inhibition at 100 µM', 100),
  ('Cc1cnccc1CCNC(=O)c1cccnc1S [Z1515958452]', 'SARS-CoV-2 3CL protease (Severe acute respiratory syndrome coronavirus 2)', 'Inhibition at 100 µM', 100),
  ('CN(C)C(=O)c1csc(C(=O)CCl)c1 [Z3244705145]', 'SARS-CoV-2 3CL protease (Severe acute respiratory syndrome coronavirus 2)', 'Inhibition at 100 µM', 89),
  ('Cc1ccccc1CN1CCN(C(=O)CCl)CC1 [Z208155076]', 'SARS-CoV-2 3CL protease (Severe acute respiratory syndrome coronavirus 2)', 'Inhibition at 100 µM', 85),
  ('CC(C)OC1CCC(NC(=O)c2cccnc2S)CC1 (centres unmarked) [Z1500153099]', 'SARS-CoV-2 3CL protease (Severe acute respiratory syndrome coronavirus 2)', 'Inhibition at 100 µM', 96),
  ('COC1(CNC(=O)c2cccnc2S)CCOCC1 [Z1483040147]', 'SARS-CoV-2 3CL protease (Severe acute respiratory syndrome coronavirus 2)', 'Inhibition at 100 µM', 90),
  ('Cc1cnc(=S)[nH]c1 [Z2768165643]', 'SARS-CoV-2 3CL protease (Severe acute respiratory syndrome coronavirus 2)', 'Inhibition at 100 µM', 100),
  ('Nc1nccnc1S [Z1868316802]', 'SARS-CoV-2 3CL protease (Severe acute respiratory syndrome coronavirus 2)', 'Inhibition at 100 µM', 92);

* * *

molecular target: SARS-CoV-2 3CL protease (Severe acute respiratory syndrome coronavirus 2); experiment: biochemical; details: 20 nM protease; read-out: SARS-CoV-2 3CLpro IC50
Measurement name: IC50 (nM)

INSERT INTO measurements (compound, units_text, measured_number) VALUES
  ('CC(C)C[C@H](NC(=O)OCc1cccc(C(F)(F)F)c1)C(=O)N[C@@H](C[C@@H]1CCNC1=O)C(O)S(=O)(=O)O (stereo partly shown)', 'nM', 16),
  ('CC(C)C[C@H](NC(=O)OCc1cccc2ccccc12)C(=O)N[C@@H](C[C@@H]1CCNC1=O)C(O)S(=O)(=O)O (stereo partly shown)', 'nM', 72),
  ('Cc1ncc(C(=O)Oc2cncc(Br)c2)s1', 'nM', 14),
  ('CC(C)C[C@H](NC(=O)OCc1ccccc1Cl)C(=O)N[C@@H](C[C@@H]1CCNC1=O)C(O)S(=O)(=O)O (stereo partly shown)', 'nM', 29),
  ('CC(C)C[C@H](NC(=O)OCc1cccc(Cl)c1)C(=O)N[C@@H](C[C@@H]1CCNC1=O)C(O)S(=O)(=O)O (stereo partly shown)', 'nM', 23),
  ('O=C(N[C@@H](CC1CCCCC1)C(=O)N[C@@H](C[C@@H]1CCNC1=O)C(O)S(=O)(=O)O)OCc1ccccc1 (stereo partly shown)', 'nM', 75),
  ('O=C(N[C@@H](CC1CC1)C(=O)N[C@@H](C[C@@H]1CCNC1=O)C(O)S(=O)(=O)O)OCc1cccc(Cl)c1 (stereo partly shown)', 'nM', 13);
